Tested on: HBL-100
EXPERIMENT_NOTES: Antiproliferative activity against human HBL100 cells after 70 hrs by alamar blue assay
Type: cell-based
EXPERIMENTAL_PARAMETERS: HBL-100, 70 h
QUANTITY_MEASURED: pIC50
Give bare numbers, as −log10 of the molar value.

Some solved cases for reference:
[O-][S+](CC#Cc1ccccc1C#CCO)c1ccccc1 (centres undefined) | 4.72
[O-][S+](CC#Cc1cccnc1C#CCO)c1c(F)c(F)c(F)c(F)c1F (centres undefined) | 5.85
COc1ccc(NS(=O)(=O)c2c(F)c(F)c(F)c(F)c2F)cc1F | 6.70

Task item: pIC50 for COc1cccc2c1C(=O)c1c(O)c3c(c(O)c1C2=O)C[C@@](O)(C(=O)CO)C[C@@H]3O[C@H]1C[C@H](N)[C@H](O)[C@H](C)O1 ?
Reply: 7.10
